Measured inhibition by item
- SYSTEM NAME: Glutathione S-transferase omega-1 (Homo sapiens)
- ASSAY METHOD TEXT: inhibitors of recombinant GSTO1, primary screen, counter-screen for RBBP9 inhibitor project, biochemical, fluorescence polarization (AID 1974);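 note: 0% = GSTO1-1 with DMSO and 100% = wells lacking GSTO1-1 enzyme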
- CONDITION INFO: recombinant GSTO1, activity-based probe fluorescence polarization; at 5.96 µM; stronger effect = higher value
Hit rate of the full screen: of about 300,000 compounds, about 3,200 (1.1%) were called active. The entries come from a sample that favours actives as a whole.
ATTRIBUTE MEASURED: inhibition (%)

- CCOc1ccc(/C=C/C(=O)N(CC)CC(=O)NCc2cccs2)cc1OC: 19.7
- Cc1ccc(NS(=O)(=O)c2ccc(C(=O)NCCCN3CCOCC3)cc2)cc1: 10.7
- C#CCOCCOCCOCCNc1nc(N2CCN(C(=O)Cn3cc(CCCCN)nn3)CC2)nc(N2CCN(C(=O)[C@H](CCCCN)n3cc(CCC(=O)O)nn3)CC2)n1: 6.12
- C/C(CCC(=O)OC[C@H]1O[C@H](C#Cc2ccccc2)C=C[C@@H]1Oc1ccc(C)cc1)=N\OC[C@@H](O)[C@H]1O[C@@H]2OC(C)(C)O[C@@H]2[C@H]1O: 3.31
- COc1cccc(NC(C)=[N+](C)CCNS(=O)(=O)c2ccc(Cl)cc2)c1: 8.66
- O=C(c1ccncc1)N1CCN(S(=O)(=O)c2cc(C(F)(F)F)cc(C(F)(F)F)c2)CC1: 2.8
- CC1(C)S[C@@H]2[C@H](N=CN3CCCCCC3)C(=O)N2[C@H]1C(=O)O: 1.77
- COc1ccc(Cc2nnc(SCC(=O)N(c3ccccc3)C(C)C)n(N)c2=O)cc1: -0.68

---

- SYSTEM NAME: Glutathione S-transferase omega-1 (Homo sapiens) (UniProt P78417)
- Sequence (P78417 whole entry, looked up): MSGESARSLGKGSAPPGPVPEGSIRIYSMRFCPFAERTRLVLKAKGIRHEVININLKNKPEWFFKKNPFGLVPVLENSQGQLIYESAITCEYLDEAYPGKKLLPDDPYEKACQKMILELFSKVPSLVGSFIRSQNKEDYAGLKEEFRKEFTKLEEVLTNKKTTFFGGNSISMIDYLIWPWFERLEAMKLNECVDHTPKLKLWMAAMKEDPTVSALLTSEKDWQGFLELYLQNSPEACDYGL
- ASSAY METHOD TEXT: inhibitors of recombinant GSTO1, primary screen, counter-screen for RBBP9 inhibitor project, biochemical, fluorescence polarization (AID 1974);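 note: 0% = GSTO1-1 with DMSO and 100% = wells lacking GSTO1-1 enzyme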
- CONDITION INFO: recombinant GSTO1, activity-based probe fluorescence polarization; at 5.96 µM
Among all 300,000 compounds or so, about 3,200 (1.1%) were called active.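 The calls were made as follows: active = inhibition above the campaign mean inhibition plus 3 SD (cut at about 35% in these data); inactive = the rest.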 This excerpt belongs to a sample that is enriched for actives.
Classes used: active, inactive

* Cc1csc(NC(=O)CSc2nc(=O)n(CCCN(C)C)c3c2CCC3)n1 | inactive
* O=C(CNC(=O)C1COc2ccccc2O1)N/N=C/c1cc(Br)c(O)c(Br)c1 (stereo unspecified) | inactive
* Cc1cccc(C)c1NC(=O)CNC(=O)c1c(C)nn(-c2ccccc2)c1C | inactive
* CCN(C(=O)CSc1nnc(-c2ccc(OC(F)F)cc2)n1N)C1CCS(=O)(=O)C1 (stereo unspecified) | inactive
* CN(C)CCc1c[nH]c2ccc(Cn3cncn3)cc12 | inactive
* CC(=O)N(C)c1ccc(NC(=O)C(F)(F)F)cc1 | inactive
* O=C(Nc1cc(-c2ccccc2)nn1-c1ccccc1F)c1ccc([N+](=O)[O-])cc1 | inactive
* Cc1cc(Cl)c(S(=O)(=O)NCC2CCCO2)cc1OCC(N)=O (stereo unspecified) | inactive
* C[C@H]1CC[C@]2(O[C@@H](CCO)C[C@@H](O)[C@@H]2O)O1 | inactive
* Cc1nn(-c2ccccc2)c(C)c1NC(=O)CCl | active
* Cn1c(-c2ccc(C(F)(F)F)cc2)cc2onc(-c3ccccc3)c2c1=O | inactive
* CO[C@@H]1[C@@H](OC(N)=O)[C@@H](O)C(Oc2ccc3c(O)c(NC(=O)c4ccc(O)c(CC=C(C)C)c4)c(=O)oc3c2C)OC1(C)C (stereo partly specified) | inactive
* COc1ccc(CNC(=O)[C@@H]2CC=C[C@@H]3CCN(C4CC4)C(=O)[C@@H]32)cc1 | inactive
* CC(C)CNC(=O)C(=O)Nc1ccc(N(C)C)cc1 | inactive
* CC(Sc1nn(-c2ccc(Cl)cc2)c(=S)s1)C(=O)NCC1CCCO1 (stereo unspecified) | inactive
* Cc1ccnc(NC(=O)CNC(=O)c2ccccc2)c1 | inactive
* COCC(=O)Nc1c(I)c(C(=O)NCC(O)CO)c(I)c(C(=O)N(C)CC(O)CO)c1I (stereo unspecified) | inactive
* CC(OC(=O)CNC(=O)c1ccco1)C(=O)Nc1ccc(Cl)cn1 (stereo unspecified) | inactive
* Cc1c(CC(=O)N2CCN(C(=O)C3COc4ccccc4O3)CC2)c(=O)oc2c(O)c(O)ccc12 (stereo unspecified) | active
* Cc1cc(Cl)c(S(=O)(=O)Nc2ccc3c(c2)OCCO3)cc1OCC(N)=O | active
* Cc1ccc(S(=O)(=O)N2[C@@H](c3cccc(Cl)c3)C(C(=O)O)=CC[C@H]2c2ccc(Cl)c(Cl)c2)cc1 | inactive
